Value source: ChEMBL document CHEMBL4017531

study_target: DNA repair protein complementing XP-A cells (Homo sapiens, UniProt P23025)
Sequence (P23025 whole entry): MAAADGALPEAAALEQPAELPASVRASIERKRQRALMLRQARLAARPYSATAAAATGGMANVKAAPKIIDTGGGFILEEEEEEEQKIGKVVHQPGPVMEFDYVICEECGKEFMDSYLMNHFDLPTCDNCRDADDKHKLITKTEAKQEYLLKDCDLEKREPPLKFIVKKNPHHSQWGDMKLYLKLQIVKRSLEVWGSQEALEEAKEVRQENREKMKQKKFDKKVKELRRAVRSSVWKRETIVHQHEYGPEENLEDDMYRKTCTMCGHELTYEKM
test_protocol: Inhibition of full length human XPA expressed in Sf9 cells assessed as reduction in interaction of XPA with 32P-labeled cisplatin-modified dsDNA by EMSA
pIC50: −log10 of the molar value.
endpoint: pIC50

CC1=NN(c2cccc(C(=O)NCC3CC3)c2)C(=O)/C1=C\c1ccc(-c2ccc(Cl)c(C(=O)NCC3CC3)c2)o1 ... < 4.30
CCOC(=O)c1cccc(N2N=C(C)/C(=C/c3ccc(-c4ccc(Cl)c(C(=O)NCc5ccc(F)cc5)c4)o3)C2=O)c1 ... < 4.60
CC1=NN(c2cccc(C(=O)O)c2)C(=O)/C1=C\c1ccc(-c2ccc(C(=O)NCc3ccc(F)cc3)cc2)o1 ... < 4.30

Moving on to another compound below.
Item "CC1=NN(c2cccc(C(=O)O)c2)C(=O)/C1=C\c1ccc(-c2ccc(C(=O)NCC3CC3)cc2)o1" ; assay system DNA repair protein complementing XP-A cells (Homo sapiens, UniProt P23025); pIC50 reported as < 4.30
